Consider the following molecules and their measured pEC50 readings.
molecular target: human somatostatin receptor subtype 5 (Homo sapiens, UniProt P35346); construct: expressed in transfected cells; assay: cAMP assay for SST5R (inhibition of cAMP in CHO-K1 cells); assay type: cell-based; settings: Table A; inhibition of cAMP via human SST5 receptor; read-out: SST5 potency
Sequence (P35346 whole entry): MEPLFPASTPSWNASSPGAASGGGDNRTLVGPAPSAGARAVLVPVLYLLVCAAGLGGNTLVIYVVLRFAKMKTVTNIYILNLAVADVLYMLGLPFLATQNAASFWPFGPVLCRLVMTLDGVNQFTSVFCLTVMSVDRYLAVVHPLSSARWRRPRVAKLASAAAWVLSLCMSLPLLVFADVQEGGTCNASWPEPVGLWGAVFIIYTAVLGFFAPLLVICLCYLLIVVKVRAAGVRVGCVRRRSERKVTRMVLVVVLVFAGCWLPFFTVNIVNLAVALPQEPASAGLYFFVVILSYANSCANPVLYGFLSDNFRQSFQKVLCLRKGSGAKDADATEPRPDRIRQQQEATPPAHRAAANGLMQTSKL
pEC50: −log10 of the molar value.

{"columns": ["molecule", "pEC50"],
 "data": [
  ["C[C@]1(N)CCN(c2c(C(=O)NC3CCCC3)cnc(C#N)c2-c2ccnc(C(F)(F)F)c2)C1", "> 8.00"],
  ["C[C@H](NC(=O)c1cnc(C(F)(F)F)c(-c2cc(F)cc(F)c2)c1N1CC[C@](C)(N)C1)C1CC1", "> 8.00"],
  ["CCCCNC(=O)c1cnc(C#N)c(-c2ccnc(C(F)(F)F)c2)c1N1CC[C@](C)(N)C1", "> 8.00"],
  ["Cc1ncc(C(=O)NC2CCC(F)(F)CC2)c(N2CC[C@](C)(N)C2)c1-c1cc(F)cc(F)c1", "> 8.00"],
  ["N#Cc1ncc(C(=O)NC23CC(C2)C3)c(N2C[C@H](N)[C@@H](F)C2)c1-c1cc(F)cc(F)c1 (single isomer, unassigned)", "7.00 to 8.00"]
]}

INPUT: // returns reported pEC50 for input Cc1ncc(C(=O)N[C@@H](C)C2CC2)c(N2CC[C@](C)(N)C2)c1-c1ccc(F)c(Cl)c1
OUTPUT: > 8.00

INPUT: // returns reported pEC50 for input COc1ncc(C(=O)N[C@@H](C)C(F)(F)F)c(N2CC[C@](C)(N)C2)c1-c1cc(F)cc(Cl)c1
OUTPUT: > 8.00

INPUT: // returns reported pEC50 for input C[C@H](NC(=O)c1cnc(C#N)c(-c2cc(F)cc(F)c2)c1N1CC[C@](N)(CF)C1)C1CC1 (single isomer, unassigned)
OUTPUT: 7.00 to 8.00

INPUT: // returns reported pEC50 for input COc1cc(-c2c(C#N)ncc(C(=O)NC3CCCC3)c2N2CC[C@](C)(N)C2)ccn1
OUTPUT: > 8.00

INPUT: // returns reported pEC50 for input N#Cc1ncc(C(=O)NC23CC(C2)C3)c(N2CC[C@H](N)C2)c1-c1cc(F)cc(F)c1
OUTPUT: > 8.00

INPUT: // returns reported pEC50 for input COc1ncc(C(=O)N[C@@H](C)C2CC2)c(N2CC[C@](C)(N)C2)c1-c1cccc(OC(F)(F)F)c1
OUTPUT: > 8.00

INPUT: // returns reported pEC50 for input COc1ncc(C(=O)N[C@@H](C)C2CC2)c(N2CC[C@](C)(N)C2)c1-c1ccc(Cl)c(F)c1
OUTPUT: > 8.00

INPUT: // returns reported pEC50 for input CC1(C)CC(NC(=O)c2cncc(-c3cc(F)cc(F)c3)c2N2CC[C@](C)(N)C2)C1
OUTPUT: > 8.00

INPUT: // returns reported pEC50 for input Cc1ncc(C(=O)NC2CCC(F)(F)CC2)c(N2CC[C@](C)(N)C2)c1-c1cc(F)cc(OC(F)F)c1
OUTPUT: > 8.00

INPUT: // returns reported pEC50 for input C[C@]1(N)CCN(c2c(C(=O)NCc3ccon3)cnc(C#N)c2-c2cc(F)cc(F)c2)C1
OUTPUT: > 8.00

INPUT: // returns reported pEC50 for input COc1ncc(C(=O)N[C@@H](C)C(F)(F)F)c(N2CC[C@](C)(N)C2)c1-c1cnc(C)nc1
OUTPUT: 7.00 to 8.00

INPUT: // returns reported pEC50 for input C[C@H](NC(=O)c1cncc(-c2ccc3c(c2)OC(F)(F)O3)c1N1CC[C@](C)(N)C1)C1CC1
OUTPUT: 7.00 to 8.00

INPUT: // returns reported pEC50 for input C[C@]1(N)CCN(c2c(C(=O)NC3CCCCC3)cnc(C#N)c2-c2cc(F)cc(F)c2)C1
OUTPUT: > 8.00

INPUT: // returns reported pEC50 for input COc1ncc(C(=O)NC2CCC(F)(F)CC2)c(N2CC[C@](C)(N)C2)c1-c1cc(F)cc(F)c1
OUTPUT: > 8.00

INPUT: // returns reported pEC50 for input Cc1ncc(C(=O)N[C@@H](C)C2CC2)c(N2CC[C@](C)(N)C2)c1-c1cc(F)cc(Cl)c1
OUTPUT: > 8.00

INPUT: // returns reported pEC50 for input N#Cc1cccc(-c2cncc(C(=O)NCc3ccccc3)c2N2CC[C@H](N)C2)c1
OUTPUT: 6.00 to 7.00

INPUT: // returns reported pEC50 for input Cc1ncc(C(=O)N[C@@H](C)C(F)(F)F)c(N2CC[C@H](N)C2)c1-c1cccc(OC(F)F)c1
OUTPUT: > 8.00

INPUT: // returns reported pEC50 for input COCC1(N)CCN(c2c(C(=O)NC34CC(C3)C4)cncc2-c2cc(F)cc(F)c2)C1 (centres unmarked)
OUTPUT: 7.00 to 8.00

Just for reference, patent US12600709B2 is where these values come from.
